# targetOrSystem: Alpha-Synuclein Protofibril binding to heparin (HS-GAG) (Homo sapiens)
# testSummary: Inhibition of alpha-synuclein protofibril binding to immobilized heparin-BSA (ELISA)
# Set-up: species or system porcine
# testSettings: alpha-synuclein protofibrils, heparin-BSA; read-out: Alpha-Synuclein/Heparin Activity (IC-50)
Where a name gives a salt, the structure may show the parent alone.
quantityKind: IC50 (µM)

compound="C/C(=N\\Nc1ncnc2cc(Cl)ccc12)c1ccc(-n2cc(C)nc2C)nc1 [Compound 27, hydrochloride]" displayunit=µM observedvalue=1.95
compound="CC(=NNc1ncnc2cc(Cl)ccc12)c1ccnc(-n2cnc(C)c2C)c1 [Compound 28]" displayunit=µM observedvalue=3.23
compound="Clc1ccc2c(Nc3ccc(-n4ccnc4)nc3)ncnc2c1 [Compound 41]" displayunit=µM observedvalue=12.8
compound="C/C(=N\\Nc1ncnc2cc(Cl)ccc12)c1ccc(-n2cc(C)nc2C)nc1 [Compound 18]" displayunit=µM observedvalue=1.71
compound="C/C(=N\\Nc1nncc2cc(Cl)ccc12)c1ccc(-n2cc(C)nc2C)nc1 [Compound 24]" displayunit=µM observedvalue=6.44
compound="Cc1cc(-n2ccnc2)ccc1/C=N/Nc1ccnc2cc(Cl)ccc12 [Compound 1]" displayunit=µM observedvalue=3.19
compound="C/C(=N\\Nc1ncnc2cc(F)ccc12)c1ccc(-n2cnc(C)c2C)nc1 [Compound 21]" displayunit=µM observedvalue=2.06

---

# targetOrSystem: TDP-43 binding to purified human brain membranes (Homo sapiens)
# Sequence (Q13148 whole entry): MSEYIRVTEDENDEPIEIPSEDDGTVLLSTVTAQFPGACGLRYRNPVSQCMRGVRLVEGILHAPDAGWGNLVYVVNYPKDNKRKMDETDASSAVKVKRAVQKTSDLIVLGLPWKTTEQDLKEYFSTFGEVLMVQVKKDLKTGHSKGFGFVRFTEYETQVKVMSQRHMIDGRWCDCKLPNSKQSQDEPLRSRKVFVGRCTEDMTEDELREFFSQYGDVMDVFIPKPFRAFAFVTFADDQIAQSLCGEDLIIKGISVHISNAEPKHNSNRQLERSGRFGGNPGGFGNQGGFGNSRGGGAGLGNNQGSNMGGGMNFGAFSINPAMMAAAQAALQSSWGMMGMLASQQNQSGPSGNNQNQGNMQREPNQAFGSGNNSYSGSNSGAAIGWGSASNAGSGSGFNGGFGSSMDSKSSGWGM
# testSummary: Inhibition of TDP-43 binding to purified human brain cell membranes (ELISA)
# testSettings: TDP-43, purified human brain membranes; read-out: TDP43/Membrane Activity (IC-50)
Counter-ions that a name gives are not always drawn.
quantityKind: IC50

compound="C/C(=N\\Nc1ncnc2cc(Cl)ccc12)c1ccc(-n2cc(C)nc2C)nc1 [Compound 18]" targetorsystem="TDP-43 binding to purified human brain membranes (Homo sapiens)" quantitykind=IC50 observedvalue="9.28 µM"
compound=Clc1ccc2c(Nc3ccc(-n4ccnc4)nc3)ncnc2c1 targetorsystem="TDP-43 binding to purified human brain membranes (Homo sapiens)" quantitykind=IC50 observedvalue="8.32 µM"
compound="C/C(=N\\Nc1ncnc2cc(Cl)ccc12)c1ccc(-n2cc(C)nc2C)nc1 [Compound 27, hydrochloride]" targetorsystem="TDP-43 binding to purified human brain membranes (Homo sapiens)" quantitykind=IC50 observedvalue="2.98 µM"
compound=CC(=NNc1ncnc2cc(Cl)ccc12)c1ccnc(-n2cnc(C)c2C)c1 targetorsystem="TDP-43 binding to purified human brain membranes (Homo sapiens)" quantitykind=IC50 observedvalue="8.93 µM"
compound=C/C(=N\Nc1nncc2cc(Cl)ccc12)c1ccc(-n2cc(C)nc2C)nc1 targetorsystem="TDP-43 binding to purified human brain membranes (Homo sapiens)" quantitykind=IC50 observedvalue="4 µM"
compound=Cc1cc(-n2ccnc2)ccc1/C=N/Nc1ccnc2cc(Cl)ccc12 targetorsystem="TDP-43 binding to purified human brain membranes (Homo sapiens)" quantitykind=IC50 observedvalue="3.42 µM"
compound=C/C(=N\Nc1ncnc2cc(F)ccc12)c1ccc(-n2cnc(C)c2C)nc1 targetorsystem="TDP-43 binding to purified human brain membranes (Homo sapiens)" quantitykind=IC50 observedvalue="7.12 µM"

---

Reported IC50 by item:
# targetOrSystem: Amyloid-beta(1-42) oligomer binding to purified human brain membranes (Homo sapiens, UniProt P05067)
# Sequence (P05067 672-713): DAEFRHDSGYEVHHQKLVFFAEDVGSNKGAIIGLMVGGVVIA
quantityKind: IC50 (µM)

molecule=C/C(=N\Nc1ncnc2cc(F)ccc12)c1ccc(-n2cnc(C)c2C)nc1 observedvalue=3.3
molecule=CC(=NNc1ccnc2cc(Cl)ccc12)c1ccc(-n2cnc(C)c2C)nc1 observedvalue=3.56
molecule="CC(=NNc1ccnc2cc(Cl)ccc12)c1ccc(-n2ccnc2)cc1 [Compound 36, phosphate]" observedvalue=18.7
molecule=C/C(=N\Nc1nncc2cc(Cl)ccc12)c1ccc(-n2cc(C)nc2C)nc1 observedvalue=6.67

---

# targetOrSystem: Alpha-Synuclein Protofibril binding to purified human brain membranes (Homo sapiens)
# testSummary: Inhibition of protofibrillar alpha-synuclein binding to purified human brain cell membranes (ELISA)
# testSettings: Alpha-Synuclein/Membrane Activity (IC-50), alpha-synuclein protofibrils
pIC50: −log10 of the molar value.
quantityKind: pIC50

molecule=C/C(=N\Nc1ncnc2cc(Cl)ccc12)c1ccc(-n2cc[n+](C)c2)nc1 observedvalue=4.88
molecule="CC(=NNc1ccnc2cc(Cl)ccc12)c1ccc(-n2ccnc2)cc1 [Compound 36, phosphate]" observedvalue=5.02
molecule="COc1cc2nccc(N/N=C/c3ccc(-n4ccnc4)c(OC)c3)c2cc1OC [Compound 13, phosphate]" observedvalue=5.39
molecule=C/C(=N\Nc1nncc2cc(Cl)ccc12)c1ccc(-n2cc(C)nc2C)nc1 observedvalue=5.39

---

# targetOrSystem: SAA binding to heparin (HS-GAG) (Homo sapiens, UniProt P0DJI8)
# testSummary: Inhibition of SAA binding to immobilized heparin-BSA (ELISA)
# Parameters: species or system porcine
# testSettings: read-out: Serum Amyloid A/Heparin Activity (IC-50); SAA, heparin-BSA
pIC50: −log10 of the molar value. Structures can show the parent of a compound that is named as a salt.
Entries and their pIC50
quantityKind: pIC50

compound=Fc1ccc2c(N/N=C/c3ccc(-n4ccnc4)cc3)ccnc2c1 quantitykind=pIC50 observedvalue=4.62
compound=Clc1ccc2c(Nc3ccc(-n4cncn4)nc3)ncnc2c1 quantitykind=pIC50 observedvalue=4.91
compound=CC(=NNc1ccnc2cc(Cl)ccc12)c1ccc(-n2cnc(C)c2C)nc1 quantitykind=pIC50 observedvalue=4.08
compound=C/C(=N\Nc1ncnc2ccccc12)c1ccc(-n2cc(C)nc2C)nc1 quantitykind=pIC50 observedvalue=5.07
compound=Clc1ccc2c(Nc3ccc(-n4cncn4)nc3)ccnc2c1 quantitykind=pIC50 observedvalue=4.76
compound=CN(C)Cc1cc(Nc2ccnc3cc(Cl)ccc23)ccn1 quantitykind=pIC50 observedvalue=4.20
compound="C/C(=N\\Nc1ncnc2cc(Cl)ccc12)c1ccc(-n2cnc(C)c2C)nc1 [Compound 16, phosphate]" quantitykind=pIC50 observedvalue=4.86
compound="CC(=NNc1ccnc2cc(Cl)ccc12)c1ccc(-n2ccnc2)cc1 [Compound 36, phosphate]" quantitykind=pIC50 observedvalue=4.66
compound=Cc1ncn(-c2ccc(/C=N/Nc3ccnc4cc(Cl)ccc34)cc2)c1C quantitykind=pIC50 observedvalue=4.79
compound="Clc1ccc2c(N/N=C/c3ccc(-n4ccnc4)nc3)ccnc2c1 [Compound 14, hydrochloride]" quantitykind=pIC50 observedvalue=5.12
compound=C[n+]1ccn(-c2ccc(Nc3ncnc4cc(Cl)ccc34)cn2)c1 quantitykind=pIC50 observedvalue=4.50
compound=COc1ccc2c(NN=Cc3ccc(-n4ccnc4)c(C)c3)ccnc2c1 quantitykind=pIC50 observedvalue=4.50
compound="Clc1ccc2c(N/N=C/c3ccc(-n4ccnc4)cc3)ccnc2c1 [Compound 38, dihydrochloride]" quantitykind=pIC50 observedvalue=4.83
compound="Fc1cc(/C=N/Nc2ccnc3cc(Cl)ccc23)ccc1-n1ccnc1 [Compound 35, hydrochloride]" quantitykind=pIC50 observedvalue=4.50
compound="Cc1ncn(-c2ccc(/C=N\\Nc3ncnc4cc(Cl)ccc34)cn2)c1C [Compound 15, hydrochloride]" quantitykind=pIC50 observedvalue=4.91
compound=Cc1ncn(-c2ccc(Nc3ncnc4cc(Cl)ccc34)cn2)c1C quantitykind=pIC50 observedvalue=4.39
compound=C/C(=N\Nc1ncnc2cc(Cl)ccc12)c1ccc(-n2cc[n+](C)c2)nc1 quantitykind=pIC50 observedvalue=4.46

---

# maps each entry to its inhibition at 30 µM
# targetOrSystem: UniProtKB P0DJI8
# Sequence (P0DJI8 19-122): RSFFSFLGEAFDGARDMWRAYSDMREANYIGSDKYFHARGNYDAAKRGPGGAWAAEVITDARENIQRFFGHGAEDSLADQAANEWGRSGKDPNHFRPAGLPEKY
# testSummary: Inhibition of SAA binding to immobilized heparin-BSA (ELISA)
# Parameters: species or system porcine
# testSettings: 30 μM compound; SAA, heparin-BSA; read-out: Serum Amyloid A/Heparin Activity (% inhibition class)
# Protocol: Porcine intestinal mucosa heparin conjugated to Bovine Serum Albumin (Heparin-BSA) was prepared as described (Najjam, S. et al. 1997, Cytokine 12, 1013-1022). […] Bound GBAP was detected by a monoclonal antibody specific for that GBAP, followed by incubation with secondary antibody conjugated to horseradish peroxidase (HRP). […] The Optical Density of the samples was measured at 450 nm using an ELISA plate reader (BioTek Synergy H1). […] IC-50s were calculated using GraphPad Prism software. […]
quantityKind: inhibition at 30 µM

substancesmiles=O=S1(=O)CCN(Cc2ccc(/C=N/Nc3ccnc4cc(F)ccc34)cc2)CC1 quantitykind="inhibition at 30 µM" observedvalue="< 30%"
substancesmiles=CN1CCN(Cc2ccc(/C=N/Nc3ccnc4cc(Cl)ccc34)cc2)CC1 quantitykind="inhibition at 30 µM" observedvalue="> 30%"
substancesmiles=C[n+]1ccc(/C=N\Nc2ccnc3ccccc23)cc1 quantitykind="inhibition at 30 µM" observedvalue="< 30%"
substancesmiles=CCN1CCN(c2ccc(Nc3ccnc4cc5ccccc5cc34)cc2)CC1 quantitykind="inhibition at 30 µM" observedvalue="> 30%"
substancesmiles=CCN(CC)Cc1cccc(Nc2ccnc3cc(Cl)ccc23)c1 quantitykind="inhibition at 30 µM" observedvalue="< 30%"
substancesmiles=Fc1ccc2c(N/N=C/c3ccc(CN4CCOCC4)cc3)ccnc2c1 quantitykind="inhibition at 30 µM" observedvalue="> 30%"
substancesmiles=C[N+](C)(C)Cc1ccc(/C=N\Nc2ccnc3ccc(Cl)cc23)cc1 quantitykind="inhibition at 30 µM" observedvalue="< 30%"

The measured values listed here are drawn from patent US20240398783A1.
